Assay: qHTS for Agonist of gsp, the Etiologic Mutation Responsible for Fibrous Dysplasia/McCune-Albright Syndrome: qHTS; further: nearly all actives have a fitted effect of over 60% in size
Conditions: gsp mutant cells, cAMP HTRF, 30 min; series mostly up to 76.9 µM
Method: McCune-Albright syndrome (MAS) is a rare disease caused by somatic mutations in Gsgsp), a widely expressed protein central in signal transduction from G-coupled protein receptors (GPCRs). The disease symptoms are diverse, owing to the fact that the patients are mosaics with varying degrees of tissue involvement. […] The tissue phenotype is determined by the role of Gs in the function of a given cell, and excess Gs/cAMP signaling in that cell. […]
The whole screen tested about 340,000 compounds, of which about 420 (0.12%) were called active. Another 10% or so got no clear call; they are omitted. The call rests on the fitted dose curve; in most records, active means well fitted activation curve with a large enough effect; inconclusive means small, poorly fitted or top-dose-only effect, or another doubt; inactive means no such curve, though single readings can be large or run the other way; cell line not stated here. What follows is part of a selection rich in actives, with near analogues and random picks from the rest.
// classify into t (active), f (inactive)

Problem: Hi team, can someone confirm the assay call for COc1ccccc1-c1n[nH]nc1C1=CC(=O)CC(C)(C)C1 ?
Result: f

Problem: Hi team, can someone confirm the assay call for CC(C)CCOc1ccc(C(=O)Nc2cc(S(=O)(=O)N3CCOCC3)ccc2N2CCOCC2)cc1 ?
Result: f

Problem: Hi team, can someone confirm the assay call for O=C(NCCN1CCOCC1)C1CCN(S(=O)(=O)c2ccccc2)CC1 ?
Result: f

Problem: Hi team, can someone confirm the assay call for O=C(NCCS(=O)(=O)N1CCN(c2ccccc2)CC1)c1cc(=O)c2ccccc2o1 ?
Result: f

Problem: Hi team, can someone confirm the assay call for CCCCCCNC(=O)O[C@H]1CN(C(=O)OC(C)C)N(C(=O)OC(C)C)[C@@H]2CN(S(=O)(=O)c3ccc(C)cc3)C[C@]12O ?
Result: f

Problem: Hi team, can someone confirm the assay call for O=C(N=C1SC2CS(=O)(=O)CC2N1Cc1ccccc1)c1ccccc1 (stereo not given) ?
Result: f

Problem: Hi team, can someone confirm the assay call for C=CCn1c2ccccc2c2nnc(SCc3[nH]c(=O)[nH]c3C(=O)CCCCC(=O)OCC)nc21 ?
Result: t

Problem: Hi team, can someone confirm the assay call for Cc1cc(C)nc(N/N=C/c2ccc([N+](=O)[O-])o2)n1 ?
Result: f

Problem: Hi team, can someone confirm the assay call for CC(C)N=C1CCCC1C(=S)SSC(=S)C1CCCC1=NC(C)C (stereo not given) ?
Result: f

Problem: Hi team, can someone confirm the assay call for COC(=O)c1ccccc1NC(=S)NC(=O)c1ccccc1F ?
Result: f

Problem: Hi team, can someone confirm the assay call for CN(C)C(CNC(=O)c1cc(Br)c(Br)s1)c1ccco1 (stereo not given) ?
Result: f

Problem: Hi team, can someone confirm the assay call for CCOC(=O)C(=Cc1ccccc1)C(=O)c1ccccc1 ?
Result: f

Problem: Hi team, can someone confirm the assay call for O=C1[C@H]2[C@@H](c3ccc(C(F)(F)F)cc3)N[C@]3(CCCN(Cc4ccc(Cl)cc4)C3=O)[C@H]2C(=O)N1Cc1ccccc1 ?
Result: f

Problem: Hi team, can someone confirm the assay call for NC(=O)Cc1ccc2sc(-c3ccccc3)nc2c1 ?
Result: f

Problem: Hi team, can someone confirm the assay call for C=CCn1c2ccccc2c2nnc(SC(CC)C(=O)Nc3nc(C)c(C(=O)OCC)s3)nc21 (stereo not given) ?
Result: f
